Catalogue of CDK2 % Inhibition at 0.03 μM values
biological target: CDK2/cyclin A (Homo sapiens, UniProt P24941); construct: made in house; host or cells: CDK2: insect cells (baculovirus); cyclin A: E. coli; assay: Inhibition of CDK2/cyclin A retinoblastoma kinase activity (Ki; % inhibition); assay type: biochemical; conditions: 0.03 μM compound
# value in %; strip the unit string

Here is how some molecules turned out for CDK2 % Inhibition at 0.03 μM.
Molecule: Nc1nc(Nc2ccc(C(=O)N3CCN(CCO)CC3)cc2)sc1C(=O)c1c(F)cccc1F [Example G257]
Study system: CDK2/cyclin A (Homo sapiens, UniProt P24941)
Value unit: %
CDK2 % Inhibition at 0.03 μM: −43
//
Molecule: COc1cc(CNC(=O)c2ccc(Nc3nc(N)c(C(=O)c4c(F)cccc4F)s3)cc2)cc(OC)c1 [Example G262]
Study system: CDK2/cyclin A (Homo sapiens, UniProt P24941)
Value unit: %
CDK2 % Inhibition at 0.03 μM: 1
//
Molecule: Nc1nc(Nc2ccc(C(=O)NCc3ccc(Cl)c(Cl)c3)cc2)sc1C(=O)c1c(F)cccc1F [Example G336]
Study system: CDK2/cyclin A (Homo sapiens, UniProt P24941)
Value unit: %
CDK2 % Inhibition at 0.03 μM: 36
//
Molecule: COC(=O)c1ccc(NC(=O)c2ccc(Nc3nc(N)c(C(=O)c4c(F)cccc4F)s3)cc2)c(C)c1 [Example G354]
Study system: CDK2/cyclin A (Homo sapiens, UniProt P24941)
Value unit: %
CDK2 % Inhibition at 0.03 μM: 9
//
Molecule: Cc1cccc(CN(C)C(=O)c2ccc(Nc3nc(N)c(C(=O)c4c(F)cccc4F)s3)cc2)n1 [Example G315]
Study system: CDK2/cyclin A (Homo sapiens, UniProt P24941)
Value unit: %
CDK2 % Inhibition at 0.03 μM: −1

Exercise: Supply recorded CDK2 % Inhibition at 0.03 μM for Nc1nc(Nc2ccc(C(=O)NCc3ccccc3C(F)(F)F)cc2)sc1C(=O)c1c(F)cccc1F [Example G269] here.
Key: 6

====

tested on: HCT-116 cell line; assay: Inhibition of cell growth, MTT tetrazolium salt assay; type: cell-based; conditions: HCT-116, at 0.1 μM
The label criterion met is reserved for HCT-116 % Inhibition at 0.1 μM strictly under 20%; criterion not met covers values equal to or above it.

Worked set:
Compound: COC(CNC(=O)c1ccc(Nc2nc(N)c(C(=O)c3c(F)cccc3F)s2)cc1)OC
Discrete label: criterion not met
--
Compound: Nc1nc(Nc2ccc(C(=O)NC3CCN(Cc4ccccc4)CC3)cc2)sc1C(=O)c1c(F)cccc1F
Discrete label: criterion not met
--
Compound: Nc1nc(Nc2ccc(C(=O)NCCNc3ccccc3)cc2)sc1C(=O)c1c(F)cccc1F
Discrete label: criterion met
--
Compound: C[C@H](NC(=O)c1ccc(Nc2nc(N)c(C(=O)c3c(F)cccc3F)s2)cc1)C(N)=O
Discrete label: criterion met
--
Compound: CN1CCCC1CCNC(=O)c1ccc(Nc2nc(N)c(C(=O)c3c(F)cccc3F)s2)cc1 (centres unmarked)
Discrete label: criterion met
--
Compound: Nc1nc(Nc2ccc(C(=O)NCc3ccccn3)cc2)sc1C(=O)c1c(F)cccc1F
Discrete label: criterion not met

Now look at this one.
Exercise: Decide: HCT-116 % Inhibition at 0.1 μM of "C[C@@H](NC(=O)c1ccc(Nc2nc(N)c(C(=O)c3c(F)cccc3F)s2)cc1)c1ccccc1" strictly below 20%?
Key: criterion met
